// data source = ChEMBL document CHEMBL1133115

Would you kindly list Relative potency for each of these molecules?
- EXPERIMENTAL_SYSTEM: Vitamin D3 receptor (Bos taurus)
- METHOD_DESCRIPTION: Binding affinity for bovine thymus vitamin D3 receptor
One number for each entry.

- MOLECULE: "C=C1/C(=C\\C=C2/CCC[C@]3(C)[C@@H]([C@@H](C)CCCC(C)(C)O)CC[C@@H]23)C[C@H](O)[C@@H](C)[C@@H]1O (stereo in doubt; form 2)"
  Relative potency: 0.3

Each of the following entries comes with a recorded value; kindly state Relative potency for each.
1. C=C1/C(=C\C=C2/CCC[C@]3(C)[C@@H]([C@@H](C)CCCC(C)(C)O)CC[C@@H]23)C[C@H](O)[C@@H](C)[C@H]1O (stereo in doubt; form 1)
2. C=C1/C(=C\C=C2/CCC[C@]3(C)[C@@H]([C@H](C)CCCC(C)(C)O)CC[C@@H]23)C[C@@H](O)C[C@@H]1O
3. C=C1/C(=C\C=C2/CCC[C@]3(C)[C@@H]([C@@H](C)CCCC(C)(C)O)CC[C@@H]23)C[C@H](O)[C@@H](C)[C@H]1O (stereo in doubt; form 2)

Key:
1. 7
2. 100
3. 0.8

###

- Species on record: Rattus norvegicus
- METHOD_DESCRIPTION: Bone calcium-mobilizing (BCM) activity at 500 pmol/day/7days in vitamin D deficient rats on a low calcium diet (0.02% Ca)
- Assay type: functional
Would you kindly list BCM serum Ca for each of these molecules?

Worked examples, 3 molecules total:
- MOLECULE: "C=C1/C(=C\\C=C2/CCC[C@]3(C)[C@@H]([C@@H](C)CCCC(C)(C)O)CC[C@@H]23)C[C@H](O)[C@@H](C)[C@H]1O (stereo in doubt; form 2)"
  BCM serum Ca: "3.8 mg 100ml-1"
- MOLECULE: "C=C1/C(=C\\C=C2/CCC[C@]3(C)[C@@H]([C@H](C)CCCC(C)(C)O)CC[C@@H]23)C[C@H](O)[C@H](C)[C@@H]1O (stereo in doubt; form 2)"
  BCM serum Ca: "4.6 mg 100ml-1"
- MOLECULE: "C=C1/C(=C\\C=C2/CCC[C@]3(C)[C@@H]([C@H](C)CCCC(C)(C)O)CC[C@@H]23)C[C@@H](O)[C@H](C)[C@@H]1O (stereo in doubt; form 2)"
  BCM serum Ca: "<7.8 mg 100ml-1"

Note: attention shifts to another entry.
Exercise: For the molecule C=C1/C(=C\C=C2/CCC[C@]3(C)[C@@H]([C@@H](C)CCCC(C)(C)O)CC[C@@H]23)C[C@H](O)[C@@H](C)[C@@H]1O (stereo in doubt; form 1) , give its measured BCM serum Ca value.
Key: 4.3 mg 100ml-1

###

- Species on record: Rattus norvegicus
- METHOD_DESCRIPTION: Bone calcium-mobilizing (BCM) activity at 260 pmol/day *7day in vitamin D deficient rats on a low-calcium diet ([…])
- Format: functional
Would you kindly list BCM serum Ca for each of these molecules?

- MOLECULE: "C=C1/C(=C\\C=C2/CCC[C@]3(C)[C@@H]([C@H](C)CCCC(C)(C)O)CC[C@@H]23)C[C@@H](O)[C@H](C)[C@@H]1O (stereo in doubt; form 2)"
  BCM serum Ca: "<5.8 mg 100ml-1"

Each of the following entries comes with a recorded value; kindly state BCM serum Ca for each.
1. C=C1/C(=C\C=C2/CCC[C@]3(C)[C@@H]([C@H](C)CCCC(C)(C)O)CC[C@@H]23)C[C@H](O)[C@H](C)[C@@H]1O (stereo in doubt; form 2)
2. C=C1/C(=C\C=C2/CCC[C@]3(C)[C@@H]([C@H](C)CCCC(C)(C)O)CC[C@@H]23)C[C@@H](O)[C@@H](C)[C@H]1O (stereo in doubt; form 2)
3. C=C1/C(=C\C=C2/CCC[C@]3(C)[C@@H]([C@H](C)CCCC(C)(C)O)CC[C@@H]23)C[C@@H](O)C[C@@H]1O
4. C=C1/C(=C\C=C2/CCC[C@]3(C)[C@@H]([C@H](C)CCCC(C)(C)O)CC[C@@H]23)C[C@@H](O)[C@H](C)[C@@H]1O (stereo in doubt; form 1)

Key:
<4.6 mg 100ml-1
<5 mg 100ml-1
<5.5 mg 100ml-1
<6 mg 100ml-1
